- target_or_system: catalytic domain of neutrophil collagenase (Homo sapiens, UniProt P22894)
- Construct: enzymatic activity of the catalytic domains of human stomelysine and of neutrophil collagenase; made in house
- Sequence (P22894 100-262 limits assumed): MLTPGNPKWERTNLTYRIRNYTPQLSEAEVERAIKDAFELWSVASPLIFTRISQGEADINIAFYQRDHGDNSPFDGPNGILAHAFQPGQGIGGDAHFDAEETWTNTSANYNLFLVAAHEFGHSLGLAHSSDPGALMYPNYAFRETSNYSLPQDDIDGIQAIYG
- assay_overview: Enzyme inhibition, catalytic domain of neutrophil collagenase (fluorogenic substrate)
- Type: biochemical
- run_parameters: carboxylic acids from Example 34; piperazine-N,N'-bis[2-ethanesulfonic acid] buffer pH=6.5; read-out: Neutrophil collagenase IC 50
pIC50: −log10 of the molar value.
Measured pIC50, listed per entry for reference.
quantity_measured: pIC50

INSERT INTO assay_data (compound, quantity_measured, result) VALUES
  ('O=C(O)[C@H]1Cc2ccccc2CN1S(=O)(=O)c1ccc2oc3ccccc3c2c1', 'pIC50', 6.52),
  ('O=C(O)[C@H]1Cc2ccccc2CN1S(=O)(=O)c1ccc(-c2ccccc2)cc1', 'pIC50', 8.00),
  ('O=C(O)[C@H]1Cc2ccccc2CN1S(=O)(=O)c1ccc(-c2ccc(Cl)cc2)cc1', 'pIC50', 8.30),
  ('O=C(O)[C@H]1Cc2c([nH]c3ccccc23)CN1S(=O)(=O)c1ccc(Oc2ccccc2)cc1', 'pIC50', 7.00),
  ('O=C(O)[C@H]1Cc2ccc([N+](=O)[O-])cc2CN1S(=O)(=O)c1ccc(-c2ccc(F)cc2)cc1', 'pIC50', 7.40),
  ('O=C(O)[C@H]1Cc2cc([N+](=O)[O-])ccc2CN1S(=O)(=O)c1ccc(-c2ccc(F)cc2)cc1', 'pIC50', 7.70),
  ('O=C(O)[C@H]1Cc2ccccc2CN1S(=O)(=O)c1ccc(Oc2ccccc2)cc1 [41 (13b)]', 'pIC50', 8.05);

These entries and their values trace back to patent US6815440B2.
